Assignment: determine reported melting point for the given compounds.

Recorded melting point (compound CCOc1c(C(N)=O)oc2c3ccccc3n(-c3ccccc3)c12 ): 187 to 188 °C

Measured melting point of C[C@@H](NC(=O)Nc1ccc(C(C)(C)C)cc1)c1ccc(NS(C)(=O)=O)c(C#C[Si](C)(C)C)c1 : 118 to 120 °C

For reference, reported melting point for CCn1ncc2c(NCc3cccc(OC)c3)c3ccccc3nc21 stands at 260 to 263 °C

Looking up CC(C)c1cc(Cl)nc(-c2ccc(C#N)cc2)n1 , I found its melting point recorded as 114 °C

The compound NC(=O)CCCOc1ccc(C23CC4CC(CC(C4)C2)C3)cc1 showed melting point equal to 176 to 177 °C

Batch request: melting point for each of the following compounds.
1. Nc1ccc(C=CC(=O)N2CCc3c([nH]c4ccccc34)C2c2ccc3c(c2)CCO3)cc1 (centres undefined)
2. Cc1nc(N)nc(N)c1-c1cc(I)ccc1Cl
3. COc1ccc(-c2nc3sccn3c2/C=C/C(=O)c2cccs2)cc1
4. N#CCN1CCOC(c2ccccc2)(c2ccccc2)CC1

1. 183 °C
2. 232 to 234 °C
3. 169 to 172 °C
4. 119 to 121 °C
